Tested on: SW-620
Assay: NCI tumour cell line growth inhibition, 48 h
Active and inactive are the calls of the source. Rule as the data show it: active = GI50 up to about 1.1 µM and inactive = higher.
Please reply with one of these outcomes: active, inactive

Example results:
# Compound, Label
data = [
    ("COc1cc(Cl)c(CC(=O)c2c[nH]c3ccccc23)cc1OC", "inactive"),
    ("COc1cc2c(cc1C)[n+]([O-])c(C)c(C(=O)C/C(=N/NC(=O)C[N+](C)(C)C)C(=O)Nc1cccc(Cl)c1C)[n+]2[O-]", "inactive"),
    ("COC1=C(C)C(=O)c2c(c(COC(N)=O)c3n2CC(OC(C)=O)C3OC(C)=O)C1=O (stereo not given)", "active"),
]

Assay result, entry Brc1cccc(C2ON=C(c3ccccc3)N2C23CC4CC(CC(C4)C2)C3)c1 (stereo not given) — outcome?
inactive

Next compound up: CCOC(=O)C#Cc1ccc(C#CC(=O)OCC)cc1
inactive

Next compound up: O=c1c2cc(Cl)ccc2sc2cccc(Cl)c12
inactive

Next compound up: CN1CN(c2ccccc2)C2(CCN(CCCSc3ccccc3NC(=O)/C=C/c3ccccc3)CC2)C1=O
inactive

* * *

Tested on: OVCAR-3
Experiment: NCI tumour cell line growth inhibition, 48 h
Active and inactive are the calls of the source. Cut-off read from the data, not from the text of the source: active = GI50 up to about 1.1 µM and inactive = higher.
Outcome measure: GI50

# Compound, GI50
records = [
    ("O=C(c1ccc(Cl)cc1)N(C(=S)N1CCN(c2ccccc2)CC1)C1CCCCC1", "> 100 µM (inactive)"),
]

Could you share which GI50 value was measured for O=c1[nH]c2[nH]c(-c3ccc(Br)cc3)cc2c2ccccc12 ?
> 100 µM (inactive)

Next compound up: Cc1c2cc[n+](C)cc2c(C)c2c1[nH]c1ccc(OCC(F)(F)F)cc12
4.72 µM (inactive)

* * *

Tested on: SF-539
Assay: NCI tumour cell line growth inhibition, 48 h
Active and inactive are the calls of the source. Cut-off read from the data, not from the text of the source: active = GI50 up to about 1.1 µM and inactive = higher.
Outcome measure: GI50

Recorded results for 3 compounds are shown here.
# Compound, Outcome measure, Experimental value
rows = [
    ("O=C(N/C=C1\\C(=O)Oc2ccccc2C1=O)Nc1ccccc1", "GI50", "43.8 µM (inactive)"),
    ("CCOC(=O)c1c(N2CCOCC2)[nH]c(=O)c(C(c2cccs2)c2c(O)c(C(=O)OCC)c(N3CCOCC3)[nH]c2=O)c1O", "GI50", "> 100 µM (inactive)"),
    ("C[N+](C)(C)CC(=O)N/N=C(/C(=O)Nc1ccc(Br)cc1)C1C(=O)NC(=O)NC1=O", "GI50", "> 100 µM (inactive)"),
]

Could you share which GI50 value was measured for Nc1nc2c(c(=O)[nH]1)N=C(COP(=O)(O)OP(=O)(O)O)CN2 ?
> 100 µM (inactive)

Next compound up: COC(=O)/C(=N/NC(N)=O)C(C(=O)C(=O)Nc1ccc(C)cc1)c1nc2ccc(C(=O)c3ccccc3)cc2nc1O (stereo not given)
85.1 µM (inactive)

* * *

Test system: BT-549
Assay: NCI tumour cell line growth inhibition, 48 h
Active and inactive are the calls of the source. Rule as the data show it: active = GI50 up to about 1.1 µM and inactive = higher.
Outcome measure: GI50

# Compound, Measured target, GI50
measured = [
    ("CC(CSc1nc2c(c(=N)n1-c1ccccc1)c(=S)n(-c1ccccc1)c(=S)n2-c1ccccc1)CN(C)C (stereo unspecified)", "BT-549", "1.78 µM (inactive)"),
    ("Cc1[nH]c2ncn(Nc3ccccc3)c(=N)c2c1Cc1ccccc1", "BT-549", "3.34 µM (inactive)"),
    ("CC(=O)c1csc2c1C(=O)c1scc(C(C)=O)c1C2=O", "BT-549", "1.75 µM (inactive)"),
    ("CCOP(=O)(OCC)/C(=C/NC(=S)c1ccncc1)C(=O)OC", "BT-549", "> 100 µM (inactive)"),
    ("c1ccc(COC2NCCN2Cc2ccccc2)cc1 (stereo unspecified)", "BT-549", "> 100 µM (inactive)"),
]

Could you share which GI50 value was measured for C(=N\NC1=NCCN1)/c1ccc(-c2cn3cc(/C=N/NC4=NCCN4)ccc3n2)cc1 ?
18.2 µM (inactive)
